target.entity: AhR (Homo sapiens (Human))
Sequence (P35869 11-848): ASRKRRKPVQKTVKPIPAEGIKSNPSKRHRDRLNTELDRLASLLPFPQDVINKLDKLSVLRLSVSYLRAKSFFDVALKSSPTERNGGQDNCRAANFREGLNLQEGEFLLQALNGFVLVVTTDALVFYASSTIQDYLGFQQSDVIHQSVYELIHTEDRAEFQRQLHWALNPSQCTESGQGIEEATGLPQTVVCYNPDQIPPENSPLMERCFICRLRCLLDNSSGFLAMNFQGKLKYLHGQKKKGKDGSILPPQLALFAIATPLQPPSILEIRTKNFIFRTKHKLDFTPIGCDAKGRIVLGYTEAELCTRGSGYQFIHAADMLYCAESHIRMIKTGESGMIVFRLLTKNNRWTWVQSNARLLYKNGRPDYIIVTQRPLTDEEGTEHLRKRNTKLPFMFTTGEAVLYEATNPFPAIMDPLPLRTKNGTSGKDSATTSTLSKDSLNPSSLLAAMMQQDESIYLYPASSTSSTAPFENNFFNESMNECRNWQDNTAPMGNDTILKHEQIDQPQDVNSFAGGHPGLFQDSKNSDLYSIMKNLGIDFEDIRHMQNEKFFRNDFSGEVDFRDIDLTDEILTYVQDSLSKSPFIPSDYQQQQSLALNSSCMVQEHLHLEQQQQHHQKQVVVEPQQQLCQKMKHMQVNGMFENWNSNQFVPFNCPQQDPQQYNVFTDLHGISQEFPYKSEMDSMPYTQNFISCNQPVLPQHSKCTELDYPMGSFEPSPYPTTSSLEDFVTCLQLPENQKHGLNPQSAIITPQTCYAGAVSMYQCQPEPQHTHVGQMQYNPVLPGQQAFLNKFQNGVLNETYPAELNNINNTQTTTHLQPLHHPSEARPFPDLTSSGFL
method.description: ethoxyresorufin-O-deethylase (EROD) assay, AhR activation (CYP1A1 induction)
Assay type: cell-based
stated.conditions: Table 5; read-out: AhR, EC50

>  <line.notation>
Cn1cc(Cc2cc3ccccc3[nH]2)c2ccccc21

>  <EC50 (nM)>
90

$$$$

----------
target.entity: AhR (Homo sapiens (Human))
method.description: ethoxyresorufin-O-deethylase (EROD) assay, AhR activation (CYP1A1 induction)
Type: cell-based
stated.conditions: EROD assay, HepG2 cells, 24 h treatment; read-out: EC50 (AhR Activity of Diindolylmethanes)
pEC50: −log10 of the molar value.

>  <compound>
Cn1cc(Cc2cc3ccccc3[nH]2)c2ccccc21 [Compound 10d]

>  <pEC50>
7.07

$$$$
>  <compound>
Cn1cc(Cc2[nH]c3ccccc3c2C=O)c2ccccc21 [Compound 11d]

>  <pEC50>
7.26

$$$$
>  <compound>
O=Cc1c(Cc2c[nH]c3c(Cl)cccc23)[nH]c2ccccc12 [Compound 11b]

>  <pEC50>
6.49

$$$$
>  <compound>
COc1ccc2[nH]cc(Cc3cc4ccccc4[nH]3)c2c1 [Compound 10c]

>  <pEC50>
7.03

$$$$

----------
Tested on: secreted PCSK9 in HepG2 cells
method.description: PCSK9 inhibition assay (AlphaLISA, secreted PCSK9)
Type: cell-based
stated.conditions: Homo sapiens, Table 5
Parameter: IC50. Scope: all listed entries.

>  <molecule>
Cc1ccc(S(=O)(=O)n2c(Cc3cn(C)c4ccccc34)c(C(C)C)c3ccccc32)cc1

>  <IC50>
1100 nM

$$$$
>  <molecule>
Cn1cc(Cc2cc3ccccc3[nH]2)c2ccccc21 [Compound 2351377824]

>  <IC50>
17900 nM

$$$$
>  <molecule>
COc1ccc(Cc2c(C)c3ccccc3n2S(=O)(=O)c2ccc(C)cc2)c(OC)c1

>  <IC50>
1100 nM

$$$$
>  <molecule>
Clc1ccc2[nH]cc(Cc3cc4ccccc4[nH]3)c2c1 [Compound 2351377819]

>  <IC50>
10000 nM

$$$$
>  <molecule>
Clc1cccc2c(Cc3cc4ccccc4[nH]3)c[nH]c12 [Compound 2351377820]

>  <IC50>
2800 nM

$$$$
